Sourced from patent US20260373248A1

ASSAY_REMARKS: Peptoid quantity remaining in liver by HPLC-TOF mass spectrometry; note: time not given here
Type: in vivo
EXPERIMENTAL_CONDITIONS: liver homogenate
Non-standard residues stand in square brackets, D forms with d. Residues, ends and D or L forms follow the SMILES beside them. *: point of attachment. N(3-lauroyloxypropyl)Gly = CCCCCCCCCCCC(=O)OCCCNCC(=O)O; N(3-imidazol-1-ylpropyl)Gly = O=C(O)CNCCCn1ccnc1; N(2-ethylhexyl)Gly = CCCCC(CC)CNCC(=O)O; NHexGly = CCCCCCNCC(=O)O; For = O=C*
Task for the reader: assign each of the following compounds its reported % of injected dose remaining in liver.
Respond numerically; units are % and should not be typed.

Could you share which % of injected dose remaining in liver value was measured for CCCCCCCCCCCC(=O)OCCCN(CC(=O)N(CC(=O)N(CCCn1ccnc1)CC(=O)N(CC(=O)N(CCCOC(=O)CCCCCCCCCCC)CC(=O)N(CC(N)=O)CC(CC)CCCC)CC(CC)CCCC)CC(CC)CCCC)C(=O)CN(C=O)CC(CC)CCCC (centres unmarked) [Compound 82] (For-[N(2-ethylhexyl)Gly][N(3-lauroyloxypropyl)Gly][N(2-ethylhexyl)Gly][N(3-imidazol-1-ylpropyl)Gly][N(2-ethylhexyl)Gly][N(3-lauroyloxypropyl)Gly][N(2-ethylhexyl)Gly]-NH2) ?
15.77

What does the record list as % of injected dose remaining in liver for CCCCCCCCCCCC(=O)OCCCN(CC(=O)N(CC(=O)N(CCCCCC)CC(=O)N(CCCOC(=O)CCCCCCCCCCC)CC(=O)N(CC(=O)N(CCCCCC)CC(N)=O)CC(CC)CCCC)CC(CC)CCCC)C(=O)CNCCCn1ccnc1 (centres unmarked) [Compound 72] (H-[N(3-imidazol-1-ylpropyl)Gly][N(3-lauroyloxypropyl)Gly][N(2-ethylhexyl)Gly][NHexGly][N(3-lauroyloxypropyl)Gly][N(2-ethylhexyl)Gly][NHexGly]-NH2) ?
11.32
